assayed-target: Sodium channel protein type 9 subunit alpha (Homo sapiens, UniProt Q15858)
Sequence (Q15858 whole entry): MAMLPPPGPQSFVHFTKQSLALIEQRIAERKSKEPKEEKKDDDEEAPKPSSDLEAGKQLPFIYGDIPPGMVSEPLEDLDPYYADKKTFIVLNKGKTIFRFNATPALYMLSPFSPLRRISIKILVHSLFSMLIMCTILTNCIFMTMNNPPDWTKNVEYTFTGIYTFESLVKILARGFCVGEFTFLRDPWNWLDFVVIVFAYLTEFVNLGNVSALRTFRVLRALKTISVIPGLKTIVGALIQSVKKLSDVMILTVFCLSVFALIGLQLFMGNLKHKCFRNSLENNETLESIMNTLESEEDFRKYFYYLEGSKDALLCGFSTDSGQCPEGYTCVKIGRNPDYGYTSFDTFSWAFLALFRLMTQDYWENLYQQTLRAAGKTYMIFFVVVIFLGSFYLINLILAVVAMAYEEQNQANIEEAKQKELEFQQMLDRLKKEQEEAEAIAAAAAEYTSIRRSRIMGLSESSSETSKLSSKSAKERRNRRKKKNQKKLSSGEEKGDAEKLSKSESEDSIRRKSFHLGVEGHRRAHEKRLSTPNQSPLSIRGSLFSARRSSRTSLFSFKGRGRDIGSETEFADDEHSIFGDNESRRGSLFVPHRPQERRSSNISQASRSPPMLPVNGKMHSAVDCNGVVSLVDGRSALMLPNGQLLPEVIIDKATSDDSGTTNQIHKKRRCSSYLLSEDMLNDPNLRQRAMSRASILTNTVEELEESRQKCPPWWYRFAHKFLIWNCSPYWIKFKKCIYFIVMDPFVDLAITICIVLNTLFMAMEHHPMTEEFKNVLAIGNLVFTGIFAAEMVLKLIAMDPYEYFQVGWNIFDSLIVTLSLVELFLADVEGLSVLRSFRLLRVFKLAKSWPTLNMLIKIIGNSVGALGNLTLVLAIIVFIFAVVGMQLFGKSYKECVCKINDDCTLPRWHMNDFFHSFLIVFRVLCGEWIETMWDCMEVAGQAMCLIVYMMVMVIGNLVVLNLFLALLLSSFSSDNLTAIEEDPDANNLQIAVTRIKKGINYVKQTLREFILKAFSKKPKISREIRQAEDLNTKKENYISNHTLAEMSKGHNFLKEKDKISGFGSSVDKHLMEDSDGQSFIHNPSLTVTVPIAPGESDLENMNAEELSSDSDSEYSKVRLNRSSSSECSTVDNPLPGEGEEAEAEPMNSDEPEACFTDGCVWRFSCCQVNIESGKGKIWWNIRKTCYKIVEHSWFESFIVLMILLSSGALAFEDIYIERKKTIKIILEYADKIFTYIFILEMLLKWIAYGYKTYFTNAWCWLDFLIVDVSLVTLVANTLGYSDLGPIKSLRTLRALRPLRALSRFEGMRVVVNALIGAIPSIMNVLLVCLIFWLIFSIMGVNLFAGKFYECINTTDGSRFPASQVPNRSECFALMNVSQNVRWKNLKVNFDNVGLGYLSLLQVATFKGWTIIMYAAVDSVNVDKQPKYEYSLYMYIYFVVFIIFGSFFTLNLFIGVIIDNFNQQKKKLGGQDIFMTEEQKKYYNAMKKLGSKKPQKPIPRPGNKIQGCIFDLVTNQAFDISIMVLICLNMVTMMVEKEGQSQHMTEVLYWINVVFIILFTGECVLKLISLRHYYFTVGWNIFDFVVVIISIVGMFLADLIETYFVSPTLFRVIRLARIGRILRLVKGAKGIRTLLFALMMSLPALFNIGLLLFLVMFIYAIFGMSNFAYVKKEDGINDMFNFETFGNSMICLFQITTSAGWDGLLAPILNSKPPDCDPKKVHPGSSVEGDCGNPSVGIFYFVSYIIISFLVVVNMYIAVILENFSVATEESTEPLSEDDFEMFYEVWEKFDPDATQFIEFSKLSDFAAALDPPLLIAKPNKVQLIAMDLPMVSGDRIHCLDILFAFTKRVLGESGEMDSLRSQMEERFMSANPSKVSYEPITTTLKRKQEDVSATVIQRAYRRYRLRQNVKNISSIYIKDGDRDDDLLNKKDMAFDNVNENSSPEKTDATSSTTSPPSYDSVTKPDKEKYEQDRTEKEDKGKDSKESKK
run-description: Compound effects were measured on a partially inactivated state of the sodium channel. Cells were clamped to a holding potential yielding 20 to 50% inactivation. To elicit sodium current, channels were activated by pulsing to -10 mV for 20 msec. This voltage protocol was repeated at a rate of 0.1 Hz throughout the experiment.
pIC50: −log10 of the molar value.
quantity-kind: pIC50

Solved cases below.
| entry-smiles | quantity-kind | recorded-result |
| --- | --- | --- |
| COc1cc(-c2ccc(Cl)c(C)c2)c(F)cc1-n1c(=O)ccc2cc(S(=O)(=O)Nc3ccncn3)ccc21 | pIC50 | 8.30 |
| COc1cc(C#CC(C)(C)OC)c(F)cc1-n1c(=O)ccc2cc(S(=O)(=O)Nc3ccon3)ccc21 | pIC50 | 6.43 |
| COc1cc(-c2ccc(Cl)c(C)c2)c(F)cc1-n1c(=O)ccc2cc(S(=O)(=O)Nc3ccon3)c(F)cc21 | pIC50 | 7.89 |

(a) COc1cc(-c2cc(Cl)ccc2C)ccc1-n1c(=O)ccc2cc(S(=O)(=O)Nc3ncccn3)ccc21
(b) COc1nc(OCC2CCCCC2)c(Cl)cc1-n1c(=O)ccc2cc(S(=O)(=O)Nc3ccon3)ccc21
Query: Response body: label of entry with the larger pIC50; valid values a , b . Response format: the label of the selected entry.
Result: a
(a: 7.92, b: 7.28)

(I) COc1cc(C#CC2CCCC2)c(F)cc1-n1c(=O)ccc2cc(S(=O)(=O)Nc3ccon3)ccc21
(II) COc1ccc(-c2ccc(F)nc2)cc1-n1c(=O)ccc2cc(S(=O)(=O)Nc3ccon3)ccc21
(III) COc1cc(-c2ccc(-n3c(=O)ccc4cc(S(=O)(=O)Nc5ncc(F)cn5)ccc43)c(OC)c2)ccc1C
Query: With regard to pIC50, arrange the entries in ascending order, please. // respond by listing labels in the order requested
Result: II, III, I

(I) CCc1nccc(NS(=O)(=O)c2ccc3c(ccc(=O)n3-c3cc(F)c(-c4cc(F)cc(Cl)c4)cc3OC)c2)n1
(II) COc1cc(-c2cc(Cl)cnc2OC)c(F)cc1-n1c(=O)ccc2cc(S(=O)(=O)Nc3ncccn3)ccc21
(III) COc1cc(-c2cc(OC)c(-n3c(=O)ccc4cc(S(=O)(=O)Nc5cccnn5)ccc43)cc2F)ccc1Cl
(IV) COc1cc(-c2ccc(F)cc2)c(F)cc1-n1c(=O)ccc2cc(S(=O)(=O)Nc3ncccn3)ccc21
Query: Ascending by pIC50, please: list the compounds accordingly. Sort and list the labels as requested.
Result: I, IV, II, III
(I: 5.10, IV: 6.71, II: 7.14, III: 8.00)

(1) COc1cc(-c2cc(F)cc(Cl)c2)c(F)cc1-n1c(=O)ccc2cc(S(=O)(=O)Nc3ncco3)ccc21
(2) COc1cc(C#CC2(C)COC2)c(F)cc1-n1c(=O)ccc2cc(S(=O)(=O)Nc3ccon3)ccc21
Query: Between these two entries, 1 and 2 , state which has the higher pIC50. Answer format: the label of the selected item.
Result: 1
(1: 7.85, 2: 5.81)

* * *

assayed-target: Sodium channel protein type 9 subunit alpha (Homo sapiens, UniProt Q15858)
run-description: Compound effects were measured on a partially inactivated state of the sodium channel. Cells were clamped to a holding potential yielding 20 to 50% inactivation. To elicit sodium current, channels were activated by pulsing to -10 mV for 20 msec. This voltage protocol was repeated at a rate of 0.1 Hz throughout the experiment.
quantity-kind: IC50 (nM)

(P) COCc1cc(NS(=O)(=O)c2ccc3c(ccc(=O)n3-c3cc(F)c(Br)cc3OC)c2)ncn1
(Q) COc1cc(NS(=O)(=O)c2ccc3c(ccc(=O)n3-c3cc(F)c(-c4cc(F)cc(Cl)c4)cc3OC)c2)ncn1
(R) COc1cc(-c2ccc(-n3c(=O)ccc4cc(S(=O)(=O)Nc5ncccn5)ccc43)c(OC)c2)ccc1C
Query: Please list these compounds in decreasing order of IC50. Response field: labels, in requested order.
Result: P, R, Q

(I) COc1cc(C2CC2)c(Cl)cc1-n1c(=O)ccc2cc(S(=O)(=O)Nc3ccon3)ccc21
(II) COc1cc(-c2ccc(Cl)c(C)c2)ccc1-n1c(=O)ccc2cc(S(=O)(=O)Nc3ncco3)ccc21
(III) COc1cc(Br)c(F)cc1-n1c(=O)ccc2cc(S(=O)(=O)Nc3ccnc(C)n3)ccc21
Query: Order the records so the highest IC50 appears first and the lowest last. Form entry: ranked labels (order as requested).
Result: III, I, II

* * *

assayed-target: Sodium channel protein type 9 subunit alpha (Homo sapiens, UniProt Q15858)
run-description: Compound effects were measured on a partially inactivated state of the sodium channel. Cells were clamped to a holding potential yielding 20 to 50% inactivation. To elicit sodium current, channels were activated by pulsing to -10 mV for 20 msec. This voltage protocol was repeated at a rate of 0.1 Hz throughout the experiment.
quantity-kind: IC50 (µM)

| entry-smiles | measurement-units | IC50 |
| --- | --- | --- |
| COc1cc(Cl)cc(-c2cc(OC)c(-n3c(=O)ccc4cc(S(=O)(=O)Nc5ncccn5)ccc43)cc2C)c1 | µM | 0.005 |
| COc1cc(Br)c(F)cc1-n1c(=O)ccc2cc(S(=O)(=O)Nc3nccc(C)n3)ccc21 | µM | 1.56 |

(A) COc1cc(-c2cccc(C(F)(F)F)c2)c(F)cc1-n1c(=O)ccc2cc(S(=O)(=O)Nc3ncccn3)ccc21
(B) COc1cc(OC)cc(-c2cc(OC)c(-n3c(=O)ccc4cc(S(=O)(=O)Nc5cccnn5)ccc43)cc2F)c1
(C) COc1cc(-c2ccc(-n3c(=O)ccc4cc(S(=O)(=O)Nc5cccnn5)ccc43)c(OC)c2)ccc1C
(D) COc1cc(-c2ccc(-n3c(=O)ccc4cc(S(=O)(=O)Nc5ncccn5)ccc43)c(OC)c2)ccc1Cl
Query: Sort the 4 compounds by IC50; largest first, smallest last. The labels, placed in the requested order, form the answer.
Result: C, B, D, A
(C: 0.143 µM, B: 0.083 µM, D: 0.021 µM, A: 0.01 µM)

(A) COc1cc(Br)c(F)cc1-n1c(=O)ccc2cc(S(=O)(=O)Nc3cc(C)ncn3)ccc21
(B) COc1cc(-c2ccc(-n3c(=O)ccc4cc(S(=O)(=O)Nc5ccnc(C)n5)ccc43)c(OC)c2)ccc1C
(C) Cc1cc(-c2cc(C)c(-n3c(=O)ccc4cc(S(=O)(=O)Nc5ccncn5)ccc43)cc2F)ccc1Cl
(D) COc1cc(-c2cccc(C(F)(F)F)c2)c(F)cc1-n1c(=O)ccc2cc(S(=O)(=O)Nc3cc(C)ncn3)ccc21
Query: List these items ordered by IC50, big to small. Use the labels to give the requested order.
Result: A, C, B, D
(A: 1.04 µM, C: 0.684 µM, B: 0.296 µM, D: 0.01 µM)

(I) COc1cc(CC2CCCCC2)c(F)cc1-n1c(=O)ccc2cc(S(=O)(=O)Nc3ncccn3)ccc21
(II) COc1cc(-c2ccc(F)c(F)c2)ccc1-n1c(=O)ccc2cc(S(=O)(=O)Nc3ncc(F)cn3)ccc21
Query: Could you please tell me which of these two has the higher IC50: I or II ? Give the chosen item's label as your response.
Result: II

(A) COc1cc(-c2cc(F)cc(C(F)(F)F)c2)ccc1-n1c(=O)ccc2cc(S(=O)(=O)Nc3ncco3)ccc21
(B) COc1cc(OC)cc(-c2cc(OC)c(-n3c(=O)ccc4cc(S(=O)(=O)Nc5ncccn5)ccc43)cc2F)c1
Query: Sorting ascending by IC50, which comes first: A or B ? Record your answer as the label of the chosen record.
Result: A
(A: 0.037 µM, B: 0.064 µM)

* * *

assayed-target: Sodium channel protein type 9 subunit alpha (Homo sapiens)
run-description: Compound effects were measured on a partially inactivated state of the sodium channel. Cells were clamped to a holding potential yielding 20 to 50% inactivation. To elicit sodium current, channels were activated by pulsing to -10 mV for 20 msec. This voltage protocol was repeated at a rate of 0.1 Hz throughout the experiment.
pIC50: −log10 of the molar value.
quantity-kind: pIC50

| entry-smiles | pIC50 |
| --- | --- |
| COc1cc(-c2ccc(Cl)cc2)ccc1-n1c(=O)ccc2cc(S(=O)(=O)Nc3ncccn3)ccc21 | 7.02 |
| COc1cc(-c2cc(F)cc(C(F)(F)F)c2)ccc1-n1c(=O)ccc2cc(S(=O)(=O)Nc3ncc(F)cn3)ccc21 | 7.46 |
| CCc1nccc(NS(=O)(=O)c2ccc3c(ccc(=O)n3-c3cc(F)c(Br)cc3OC)c2)n1 | 6.91 |
| COc1cc(-c2ccc(C#N)c(C)c2)c(F)cc1-n1c(=O)ccc2cc(S(=O)(=O)Nc3ccon3)ccc21 | 7.04 |
| COc1cc(-c2ccc(F)c(F)c2)c(F)cc1-n1c(=O)ccc2cc(S(=O)(=O)Nc3cccnn3)ccc21 | 7.80 |

(I) COc1cc(-c2cccc(OC(F)F)c2)c(F)cc1-n1c(=O)ccc2cc(S(=O)(=O)Nc3ccnc(C)n3)ccc21
(II) COc1cc(-c2cc(Cl)ccn2)c(F)cc1-n1c(=O)ccc2cc(S(=O)(=O)Nc3ccon3)ccc21
(III) COc1cc(Cl)cc(-c2ccc(-n3c(=O)cnc4cc(S(=O)(=O)Nc5ccon5)ccc43)c(OC)c2)c1
Query: # rank by pIC50, ascending (min first) Labels, requested order.
Result: II, III, I
(II: 7.03, III: 7.28, I: 7.55)

Measured values drawn from ChEMBL document CHEMBL3886193 for this set.
